biological target: HMG-like dorsal switch protein 1 (rSe-DSP1); construct: recombinant DSP1 protein (rSe-DSP1); test: thermal shift assay with fitted Kd
Exercise: for every item that follows, state its recorded Kd.
Use µM as the unit, but write only the number.

IN: What does the data say about its Kd? Entry: O=C1NC(=O)c2ccccc21 [PM, Phthalimide]
OUT: 197

IN: What does the data say about its Kd? Entry: CCOc1cc(O)ccc1OC
OUT: 148

IN: What does the data say about its Kd? Entry: N#Cc1ccccc1C(=O)O
OUT: 246

Attribution: paper PMC10950498
